TARGET_OR_TEST_SYSTEM: T1, nfP2X7 CAR 1
T1 construct: Expressed on T cells with truncated EGFR as marker gene; also called anti-nfP2X7 receptor CAR 1; nfP2X7 targeted CAR on EGFR+ T cells
METHOD_DESCRIPTION: flow cytometry, CAR T cells, anti-His-FITC, EGFR+ over EGFR- cells
Below, each entry is listed alongside its reported HisTag MFI Ratio of EGFR+/EGFR-.
Output spec: single numeric token, no unit.

Solved entries (count: 2):
CD33 BRIDGE variant B14 (Fab, V domains shown, Lintuzumab-based Fab bridging molecule) VH: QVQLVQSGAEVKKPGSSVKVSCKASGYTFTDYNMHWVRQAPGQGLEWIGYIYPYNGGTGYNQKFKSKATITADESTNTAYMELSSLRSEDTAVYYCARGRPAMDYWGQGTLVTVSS VL: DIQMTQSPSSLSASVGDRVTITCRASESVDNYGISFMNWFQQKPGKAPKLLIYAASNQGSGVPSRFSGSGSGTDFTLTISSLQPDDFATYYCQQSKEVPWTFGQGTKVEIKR | 2.9
CD33 PURIFIED BRIDGE (Fab, V domains shown, also called old variant; original E200 CD33 Fab bridging molecule derived from lintuzumab) VH: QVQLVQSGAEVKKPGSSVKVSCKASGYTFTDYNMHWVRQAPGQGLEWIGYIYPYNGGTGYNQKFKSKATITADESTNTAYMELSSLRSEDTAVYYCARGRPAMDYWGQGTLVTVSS VL: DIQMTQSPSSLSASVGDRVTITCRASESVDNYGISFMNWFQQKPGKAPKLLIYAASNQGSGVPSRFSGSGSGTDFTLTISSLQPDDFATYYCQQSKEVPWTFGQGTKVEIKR | 4

Query binder follows.
Bench note: what HisTag MFI Ratio of EGFR+/EGFR- did CD33 BRIDGE variant B19 (Fab, V domains shown, Lintuzumab-based Fab bridging molecule) VH: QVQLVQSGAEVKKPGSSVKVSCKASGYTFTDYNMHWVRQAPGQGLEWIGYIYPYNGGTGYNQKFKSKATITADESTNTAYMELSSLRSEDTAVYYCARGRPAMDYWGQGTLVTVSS VL: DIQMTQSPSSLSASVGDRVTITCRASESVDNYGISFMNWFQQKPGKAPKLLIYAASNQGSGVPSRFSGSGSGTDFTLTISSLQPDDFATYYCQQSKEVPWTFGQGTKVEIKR show? 2.9
